system: Integrin alpha-4/beta-7 (Homo sapiens, UniProt P13612+P26010)
Sequence (P13612 whole entry): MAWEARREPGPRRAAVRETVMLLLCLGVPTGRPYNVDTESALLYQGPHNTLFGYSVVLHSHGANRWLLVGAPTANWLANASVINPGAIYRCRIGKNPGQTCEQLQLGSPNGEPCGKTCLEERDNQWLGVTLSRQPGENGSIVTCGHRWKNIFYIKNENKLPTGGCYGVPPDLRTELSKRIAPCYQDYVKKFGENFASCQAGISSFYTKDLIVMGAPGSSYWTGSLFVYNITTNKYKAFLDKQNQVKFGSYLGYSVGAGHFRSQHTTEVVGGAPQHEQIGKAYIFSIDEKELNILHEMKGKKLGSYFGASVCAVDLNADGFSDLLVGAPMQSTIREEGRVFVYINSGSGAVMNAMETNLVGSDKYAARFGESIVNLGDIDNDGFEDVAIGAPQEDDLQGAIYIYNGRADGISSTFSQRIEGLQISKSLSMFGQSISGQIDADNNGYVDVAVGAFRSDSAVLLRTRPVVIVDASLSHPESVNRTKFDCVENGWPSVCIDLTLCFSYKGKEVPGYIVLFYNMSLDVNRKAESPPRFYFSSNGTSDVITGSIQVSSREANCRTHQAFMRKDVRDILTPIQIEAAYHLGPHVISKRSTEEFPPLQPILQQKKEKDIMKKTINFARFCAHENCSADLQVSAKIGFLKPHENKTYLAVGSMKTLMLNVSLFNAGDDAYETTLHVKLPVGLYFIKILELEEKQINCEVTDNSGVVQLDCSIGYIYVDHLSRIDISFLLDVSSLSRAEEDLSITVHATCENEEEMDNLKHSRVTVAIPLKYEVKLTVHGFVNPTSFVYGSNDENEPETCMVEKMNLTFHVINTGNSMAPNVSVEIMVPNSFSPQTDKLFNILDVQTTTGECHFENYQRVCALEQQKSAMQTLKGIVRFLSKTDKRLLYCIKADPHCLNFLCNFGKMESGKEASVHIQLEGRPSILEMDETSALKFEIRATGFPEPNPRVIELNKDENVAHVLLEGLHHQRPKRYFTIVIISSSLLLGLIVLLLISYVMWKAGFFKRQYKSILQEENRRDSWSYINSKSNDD
Sequence (P26010 whole entry): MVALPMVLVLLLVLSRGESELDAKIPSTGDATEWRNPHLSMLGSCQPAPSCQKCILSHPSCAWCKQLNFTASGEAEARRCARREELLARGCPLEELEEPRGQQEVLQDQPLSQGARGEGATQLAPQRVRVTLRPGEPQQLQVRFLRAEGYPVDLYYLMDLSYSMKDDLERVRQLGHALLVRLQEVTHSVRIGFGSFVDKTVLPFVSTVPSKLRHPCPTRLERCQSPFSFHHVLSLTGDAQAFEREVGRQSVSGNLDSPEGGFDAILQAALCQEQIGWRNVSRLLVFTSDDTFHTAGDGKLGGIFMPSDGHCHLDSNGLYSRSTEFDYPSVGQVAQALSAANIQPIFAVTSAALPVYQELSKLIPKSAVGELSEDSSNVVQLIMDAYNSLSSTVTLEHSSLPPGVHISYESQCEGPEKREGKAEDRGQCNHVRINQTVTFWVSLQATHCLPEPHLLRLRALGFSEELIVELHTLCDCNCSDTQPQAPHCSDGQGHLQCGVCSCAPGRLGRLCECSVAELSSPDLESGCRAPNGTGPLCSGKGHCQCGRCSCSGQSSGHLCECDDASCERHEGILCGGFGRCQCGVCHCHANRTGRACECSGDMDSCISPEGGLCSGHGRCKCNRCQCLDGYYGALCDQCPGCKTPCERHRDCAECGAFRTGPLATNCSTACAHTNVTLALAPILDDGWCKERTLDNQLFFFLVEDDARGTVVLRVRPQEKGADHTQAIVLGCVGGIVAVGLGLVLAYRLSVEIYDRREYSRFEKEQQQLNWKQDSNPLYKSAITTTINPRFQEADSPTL
assay_info: Ability to block the alpha4-beta7 integrin-MAdCAM-1 binding interaction using a protein ELISA format
For each entry below, report its IC50 value.
One number for each entry, in µM.

Worked cases, answers included:
INSERT INTO results (structure_as_smiles, result_type, endpoint_unit, meas_value) VALUES
  ('CC(C)C[C@@H]1NC(=O)[C@H]([C@@H](C)O)NC(=O)[C@H](CC(=O)O)NC(=O)[C@H](CO)NC(=O)[C@H](CCCCN)NC(=O)[C@@H](N)CSSC[C@@H](C(N)=O)NC1=O', 'IC50', 'µM', 0.25),
  ('CC(C)C[C@@H]1NC(=O)[C@H]([C@@H](C)O)NC(=O)[C@H](CC(N)=O)NC(=O)[C@H](CO)NC(=O)[C@H](CCCNC(=N)N)NC(=O)[C@@H](N)CSSC[C@@H](C(N)=O)NC1=O', 'IC50', 'µM', 175);

Please look at the following molecule next.
IC50 reading for `CC(C)C[C@@H]1NC(=O)[C@H]([C@@H](C)O)NC(=O)[C@H](CCC(=O)O)NC(=O)[C@H](CO)NC(=O)[C@H](CCCN=C(N)N)NC(=O)[C@@H](N)CSSC[C@@H](C(N)=O)NC1=O` : 30
